Values were extracted from ChEMBL document CHEMBL5390315.

- TEST SYSTEM: Histone deacetylase 4 (Homo sapiens)
- TEST DETAILS: Induction of HDAC4 degradation in human MM1.S cells at 20 uM incubated for 24 hrs by immunoblot analysis
- Type: cell-based
Active and inactive are the calls of the source. No cut-off for these calls is given here.
RECORDED METRIC: Activity

* O=C(CCCCCCNC(=O)c1ccc(NC(=O)CNC(=O)CC23C[C@H]4C[C@@H](C2)C[C@@H](C3)C4)cc1)NO | inactive
* O=C(CCCCCCNC(=O)c1ccc(NC(=O)CC23C[C@H]4C[C@@H](C2)C[C@@H](C3)C4)cc1)NO | inactive
* O=C(CCCCCCNC(=O)c1ccc(NC(=O)CNC(=O)CC2c3ccccc3-c3ccccc32)cc1)NO | inactive
* O=C(CCCCCCNC(=O)c1ccc(-c2cn(CCCCCCOCCOCCNC(=O)CC34C[C@H]5C[C@@H](C3)C[C@@H](C4)C5)nn2)cc1)NO | inactive
